Assignment: determine reported growth for the given compounds.
- System: TK-10 renal
- testSummary: NCI-60 one-dose screen, 48 h (100 = growth as untreated, 0 = no growth, -100 = all killed)
- assaySetup: 10 µM unless noted
Compounds without any hit were thinned out: in the full panel of roughly 83,000, 20% have a hit.
Answers are plain numbers, in %.

Consider the following illustrative entries.
compound=N#Cc1c(NC(=O)c2cccc(C(F)(F)F)c2F)sc2c1CCC(=O)C2 recordedresult=24.1
compound=Cc1cc(C)cc(C(=O)Nc2cccc(C#Cc3cccc4[nH]nc(N)c34)c2)c1 recordedresult=92.9
compound=Cc1c(F)cc(C(N)=O)cc1NCC(=O)Nc1ccc([N+](=O)[O-])cc1 recordedresult=62.6
compound=O=C(NCCn1ccnc1)c1ccc(-c2nc3ccc4[nH]ncc4c3c3c2CCCC3)cc1 recordedresult=77.7
compound=CC(=O)c1nnn(-c2c(C(=O)n3nc(C)cc3C)sc(=S)n2-c2ccccc2)c1C recordedresult=138

Batch: growth for all items listed.
1. COc1cc(/C=C2\C(=O)Nc3ccccc32)ccc1OCc1ccc(F)cc1
2. CS(=O)(=O)c1ccc(-n2cc(/C=N/O)c(-c3ccccc3)n2)cc1
3. O=C1Nc2ccccc2/C1=C/c1ccc(COCC2CO2)n1-c1ccc(O)cc1 (stereo not given)
4. CCCn1cnc2c(c1=N)C(c1ccc(OC)cc1)c1sc3c(CC)cccc3c1O2 (stereo not given)
5. NC(N)=Nc1ccc(Nc2cccc(Nc3ccc(Cl)c(C(F)(F)F)c3)c2)cn1

Result:
[130, 92.5, 104, 74.6, 98]

###

- System: OVCAR-3 ovarian
- testSummary: NCI-60 one-dose screen, 48 h (100 = growth as untreated, 0 = no growth, -100 = all killed)
- assaySetup: 10 µM unless noted
Compounds without any hit were thinned out: in the full panel of roughly 83,000, 20% have a hit.
measureName: growth (%)
Numbers only, in %.

Here is how some compounds turned out for growth.
compound="Cc1ccc2c(c1)C13C(=C2Br)CCCN1C(=O)c1ccccc13 (centres undefined)" measurename=growth recordedresult=94.8
compound=CCn1c(SCC(=O)Nc2cccc(C(=O)/C=C/c3ccc(Br)cc3)c2)nc2ccccc2c1=O measurename=growth recordedresult=90.7
compound=COC(=O)C[Se]C(=O)Cc1c(C)n(C(=O)c2ccc(Cl)cc2)c2ccc(OC)cc12 measurename=growth recordedresult=44.7
compound=C=CCN(C)S(=O)(=O)/N=C1\NC(=O)NC1=C(Cl)Cl measurename=growth recordedresult=-84.3
compound=CC(=O)O[C@@H]1C(=O)N(c2cnccn2)[C@H]1c1ccccc1[N+](=O)[O-] measurename=growth recordedresult=2.08
compound=Cn1cc(CNc2nc3ccc(OC/C(=C/F)CN)cc3o2)ccc1=O measurename=growth recordedresult=112
compound=COc1ccc([C@H]2c3[nH]c4ccccc4c3C[C@H]3C(=O)N(C4CCN(Cc5c(Cl)cccc5Cl)CC4)CC(=O)N23)c(OC)c1 measurename=growth recordedresult=103
compound="CCCn1cnc2c(c1=N)C(c1ccc(OC)cc1)c1sc3c(CC)cccc3c1O2 (centres undefined)" measurename=growth recordedresult=6

Request: // Input: `COc1ccc(S(=O)(=O)NCCCNc2nccc(-c3cn(C(C)(C)C)nc3-c3ccc(Cl)c(OC)c3)n2)cc1` . Output its growth only.
Result: 97.5

###

- System: NCI-H522 lung
- testSummary: NCI-60 one-dose screen, 48 h
- assaySetup: 10 µM unless noted
Compounds without any hit were thinned out: in the full panel of roughly 83,000, 20% have a hit. The source made the active and inactive calls. How the source made its calls: active means growth percent below 10; inactive means the rest.
Pick from active, inactive when you respond.

Worked examples, 4 compounds total:
compound="COc1cc2c(cc1OC)C(Sc1ccc(C)cc1)c1c(nc(N)c(C#N)c1N)O2 (stereo not given)" group=active
compound=CNC(=O)c1cc(Oc2ccc3nc(NC(=O)c4cc(N5CCOCC5)cc(C(F)(F)F)c4)sc3c2)ccn1 group=inactive
compound=NC(N)=Nc1ccc(Oc2cccc(Nc3ccc(Br)c(C(F)(F)F)c3)c2)cn1 group=active
compound=COc1ccc(C(=O)c2c(N)c(C#N)cn2-c2ccccc2OC)cc1 group=active

Request: State the result this test recorded for `COc1ccc(/C=C(/C)c2ccc3ccc(OC)cc3[o+]2)c(O)c1` .
Result: inactive
